Provenance of the data: PubChem BioAssay (NCI)

- experiment notes: NCI Yeast Anticancer Drug Screen. Data for the bub3 strain (AID 167)
- details: S. cerevisiae bub3 mutant strain, at 50.0 µM, hits give high values
This is part of a sample that, as a whole, favours compounds with a hit. Of some 79,000 tested, about 15% had one in any assay.
Documented growth inhibition across a set of molecules
Unit % implied. Number only.

Ask | # lookup: growth inhibition of O=C(NCCCCN1CCCC1)C(c1cc2ccccc2s1)C1CCCCC1 (stereo not drawn)
Reply | 24.2

Ask | # lookup: growth inhibition of COC(=O)Cc1ccccc1-n1nccc1S(C)=O (stereo not drawn)
Reply | 8.6

Ask | # lookup: growth inhibition of `COc1ccc(C2(c3ccc(OC)cc3)c3ccccc3Cc3c(OC)cccc32)cc1`
Reply | -11.2

Ask | # lookup: growth inhibition of `COc1ccc(Cc2cc3c(cc2OC(C)=O)OCO3)cc1`
Reply | 38.2

Ask | # lookup: growth inhibition of `CCOc1ccc(-c2nnc(Nc3ccc(S(=O)(=O)N4CCCCC4)cc3)s2)cc1`
Reply | -2.15

* * *

Documented growth inhibition across a set of molecules
- experiment notes: NCI Yeast Anticancer Drug Screen. Data for the sgs1 mgt1 strain (AID 161);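 note: 0% = growth of cultures given vehicle only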
- details: S. cerevisiae sgs1 mgt1 strain, at 50.0 µM, hits give high values
- Experimental: Growth inhibition of yeast strains with defined genetic alterations is measured as a screen for potential anti-cancer activity. Selected strains with alterations in DNA damage repair or cell cycle control were exposed to compounds and growth inhibition was measured relative to vehicle treated controls. The strain used in this assay is sgs1 mgt1
The panel holds about 79,000 compounds, 15% with a hit somewhere; the sample as a whole holds those more often.
Unit % implied. Number only.

Use these answered entries as a reference point.
[[record]]
molecule = "Cc1ccc(S(=O)(=O)N/N=C/c2ccsc2)cc1"
observation_type = "growth inhibition"
reading_unit = "%"
numeric_readout = 27.9

[[record]]
molecule = "O=C(O)COc1ccc(F)c(F)c1F"
observation_type = "growth inhibition"
reading_unit = "%"
numeric_readout = 21.1

[[record]]
molecule = "C/C=C/C=C/C=N\\O"
observation_type = "growth inhibition"
reading_unit = "%"
numeric_readout = -6.65

[[record]]
molecule = "C/C(CCn1[nH]c(=O)ccc1=O)=N\\OCCCc1ccccc1"
observation_type = "growth inhibition"
reading_unit = "%"
numeric_readout = 11.7

[[record]]
molecule = "CN(C)CCN1N=Nc2cccc3cccc1c23"
observation_type = "growth inhibition"
reading_unit = "%"
numeric_readout = 10.9

[[record]]
molecule = "CC(C)C1CCC(C)(C(N)=O)C1 (centres undefined)"
observation_type = "growth inhibition"
reading_unit = "%"
numeric_readout = -1.3

[[record]]
molecule = "O=C(OCc1c(-c2ccccc2)nn(-c2ccccc2)c1COC(=O)Oc1ccccc1)Oc1ccccc1"
observation_type = "growth inhibition"
reading_unit = "%"
numeric_readout = -11.8

[[record]]
molecule = "COc1ccc(Br)cc1/C=N\\NC(=O)c1ccccc1N(C)C"
observation_type = "growth inhibition"
reading_unit = "%"
numeric_readout = -10.8

[[record]]
molecule = "CCc1nc(Nc2cccc(Cl)c2)c2cnn(-c3ccccc3)c2n1"
observation_type = "growth inhibition"
reading_unit = "%"
numeric_readout = -4.35

[[record]]
molecule = "COc1ccc(CCNC(=O)CC(C)=O)cc1"
observation_type = "growth inhibition"
reading_unit = "%"
numeric_readout = -42.3


Ask | # lookup: growth inhibition of `O=C1c2ccccc2C(=O)N1CCn1[nH]c(=O)c2ccccc2c1=O`
Reply | -6.55

Ask | # lookup: growth inhibition of CCOC(=O)C1OC1(C)CC (centres undefined)
Reply | 10.3
